# Test system: DCAMKL1;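 also: KINOMEscan kinase panel screen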
# Construct: gene DCLK1
# Experimental setup: concentration: 1 μM, replicates: in singlicate; n = 1
// classify(record): look up %Inh in ranges class 1: < 3%; class 2: ≥ 3% and < 20%; class 3: ≥ 20%

Use the examples below as a reference point.
CCn1cnc2c(NCc3ccccc3)ncnc21 ... class 3
O=C(Nc1n[nH]c2nc(-c3ccccc3)ccc12)C1CC1 ... class 2
Cc1ccc(NC(=O)c2ccnc(N3CCCCC3)c2)cc1-c1ccc(C(=O)NCC2CC2)cc1 ... class 1
COC(=O)Nc1nc2cc(Oc3ccc(NC(=O)Nc4cccc(SC)c4)cc3)ccc2[nH]1.Cl ... class 3
Cc1ccc(O)cc1Nc1ccnc2ccc(C(C)(C)C)cc12 ... class 1
Cc1nn2c(=O)cc(N3CCO[C@H](C)C3)nc2n1Cc1cccc(Cl)c1Cl ... class 1

## Task Which %Inh category applies to `O=C(O)C(F)(F)F.O=c1[nH]ccc2nc(N[C@@H]3CCNC3)nc(Nc3cc(Cl)cc(Cl)c3)c12` here?
## Result class 3

## Task Which %Inh category applies to `Cc1cccc(Nc2nc(NCCN)ncc2C(N)=O)c1` here?
## Result class 2

## Task Which %Inh category applies to `CCNC(=O)/C=C/c1n[nH]c2cc(Sc3ccccc3C(=O)NC)ccc12` here?
## Result class 1

## Task Which %Inh category applies to `Cc1cc(-c2c(-c3ccc(F)cc3)ncn2CCCN2CCOCC2)nc(N)n1` here?
## Result class 3

## Task Which %Inh category applies to `Nc1ncc(-c2ccc3nccc(-c4ccncc4)c3c2)cc1S(=O)(=O)N1CCCCC1` here?
## Result class 2

## Task Which %Inh category applies to `CN1CCN(Cc2ccc(NC(=O)Nc3ccc(N(C)c4ccnc(Nc5ccc(CS(C)(=O)=O)cc5)n4)cc3)cc2)CC1.Cl` here?
## Result class 3

## Task Which %Inh category applies to `O=C1NC(=O)C(c2ccccc2Cl)=C1Nc1cccc(Cl)c1` here?
## Result class 2
